I'd be grateful if you could share measured VQIINK Inhibition IC50 for these entries.
- targetDesc: Ac-VQIINK-NH2 (SEQ ID NO: 23) (N-terminal acetyl (Ac); C-terminal amide (NH2))
- experimentDescription: cell-based or functional assay
Square brackets hold non-standard residues; d marks the D form. Ends that are not written are not given here.
The reply should consist of the numeric value with the unit placed after it.

1. [dL][dK][dI][dR][dI][dE][dY] [lkiriey]	1.05 µm

Hello, I would appreciate it if you could give VQIINK Inhibition IC50 for each entry below.
1. [dF][dH][dI][dR][dI][dR][dH][dW] [fhirirhw]
2. [dW][dR][dL][dK][dV][dR][dA] [wrlkvra]

1.1 µm
20.5 µm

Hello, I would appreciate it if you could give VQIINK Inhibition IC50 for each entry below.
1. [dW][dR][dF][dH][dI][dH][dF][dY] [wrfhihfy]
2. [dF][dK][dI][dH][dI][dK][dH][dY] [fkihikhy]
3. [dF][dR][dL][dR][dI][dW][dW] [frlriww]
4. [dI][dL][dK][dI][dV][dW] [ilkivw]

1.35 µm
1.77 µm
1.4 µm
4.13 µm
